Some molecules, each annotated with its measured normalized growth.
Assay: chemical genetic growth profiling, strain panel (AID 1159580);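 further: tested at 20 µM; growth read once vehicle control cultures reached saturation at 30 °C; 1 = growth at the plate median or of vehicle wells; lower values mean less growth of the strain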
Settings: S. cerevisiae deletion strains, growth OD, locus YGR078C, strain PAC10, active compounds read low
Hit rate of the full screen: of about 5,500 compounds, about 2,000 (36%) were called active. About 18% were inconclusive and are not listed. This is one part of the list.
Give your answer as a number; write no unit.

The cases that follow already have their normalized growth on record.
Molecule	Endpoint	Test value
COC(=O)[C@H]1[C@H]2C[C@@H]3c4[nH]c5cc(OC)ccc5c4CCN3C[C@H]2C[C@@H](OC(=O)c2cc(OC)c(OC)c(OC)c2)[C@@H]1OC	normalized growth	0.975
O=C1CNC(=S)N1CCc1ccccn1	normalized growth	0.987
CC/C(=N/Oc1ccc(C(F)(F)F)cn1)c1ccc(-c2ccccc2F)cc1	normalized growth	1.01

For reference, reported normalized growth for `CC12CCC(CC1)C(C)(C)O2` stands at 1

Reported normalized growth of `Cc1ccc(Cl)cc1NC(=S)NCCO` : 1.02

normalized growth for `O=C(O)CCNC(=S)Nc1cccc(C(F)(F)F)c1` is 1.01

The recorded normalized growth for entry `C=CCN1CCc2cccc3c2[C@H]1Cc1ccc(O)c(O)c1-3` equals 0.979

`C[C@H](COc1ccccc1)N[C@H](C)[C@H](O)c1ccc(O)cc1` has a reported normalized growth of 1.01

Kindly note the recorded normalized growth for `ON(Cc1c(F)cccc1Cl)Cc1c(F)cccc1Cl` , which is 0.979

# normalized growth of `c1ccc(C2CC2)c(OCC2=NCCN2)c1` = 1.01

The molecule CN1c2ccccc2C(=O)NC1c1cc(Br)cs1 (configuration not stated) showed normalized growth equal to 1

Lookup result for `S=C(NCCCn1ccnc1)Nc1cc(Cl)ccc1Cl` ; measured normalized growth: 0.982

The molecule identified as `CC1=C(/C=C/C(C)=C/C=C/C(C)=C/C(=O)Nc2ccc(O)cc2)C(C)(C)CCC1` registered its normalized growth at 1.02

Given item CNC(CC(=O)O)C(=O)O (configuration not stated) , the value recorded as its normalized growth is 1.02

Form field normalized growth, entry `O=C(O)c1cc(C(F)(F)F)ccc1F` : 0.975

The value of normalized growth measured for the molecule `O=c1ccn([C@@H]2O[C@H](COP(=O)(O)OP(=O)(O)OP(=O)(O)O)[C@@H](O)[C@H]2O)c(=O)[nH]1` turned out to be 1.02

The recorded normalized growth for `CC(C)c1nc2ccccc2[nH]1` is 1.01

---

Assay: chemical genetic growth profiling, strain panel (AID 1159580)
Settings: S. cerevisiae deletion strains, growth OD, locus YNL233W, strain BNI4, active compounds read low
About 2,000 (36%) of roughly 5,500 compounds were called active. About 18% were inconclusive and are not listed. Some of the results follow.
The following compounds are listed with their measured normalized growth values.
Just the number.

Consider the following illustrative entries.
Compound	normalized growth
CC1(C)C2CC(=O)O[C@@]3(C)C4=CC(=O)O[C@@H](c5ccoc5)[C@]4(C)CCC3[C@@]2(C)C=C[C@H]1O (stereo partly specified)	0.992
O=C1N=C(O)CN1/N=C\c1ccc(-c2ccc([N+](=O)[O-])cc2)o1	1.01
COc1ccc(/C=C/c2cc(O)cc(O[C@@H]3O[C@H](CO)[C@@H](O)[C@H](O)[C@H]3O)c2)cc1O	1.01
O=C(O)CCC(=O)c1ccc(-c2ccccc2)cc1	0.97
CC(C)C1=CC2=CCC3[C@](C)(CCC[C@]3(C)C(=O)O)C2CC1 (stereo partly specified)	0.987

We next turn to a different compound, shown below.
# compound `NCc1ccc(S(N)(=O)=O)cc1` ; its normalized growth = 0.99

---

Assay: chemical genetic growth profiling, strain panel (AID 1159580)
Conditions: S. cerevisiae deletion strains, growth OD, locus YBR171W, strain sec66, active compounds read low
The campaign covered roughly 5,500 compounds. About 2,000 (36%) were called active. Not shown: some 18% with an inconclusive outcome. The list shows a part of the results.
Endpoint: normalized growth
Lab note: record the figure alone, no unit after it.

Reference set (3 entries):
Compound	normalized growth
CCOc1ccc2c(c1)C(C)=CC(C)(C)N2	0.982
CC(=O)O[C@H]1C[C@@H](OC(C)=O)C(C)(C)C2C[C@@H](OC(C)=O)[C@]3(C)C(CC[C@@]4(C)[C@H](c5ccoc5)C(=O)[C@H]5O[C@]543)[C@]21C (some centres undefined)	1
CC1=CC(=O)CC(C)(C)C1(O)/C=C/C(C)=C\C(=O)O (centres undefined)	1.02

Notebook: CC1(C)C2CC(=O)O[C@@]3(C)C4=CC(=O)O[C@@H](c5ccoc5)[C@]4(C)CCC3[C@@]2(C)C=C[C@H]1O (some centres undefined) , normalized growth read as 0.966

---

Listed here: items and their measured normalized growth.
Assay: chemical genetic growth profiling, strain panel (AID 1159580);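 further: tested at 20 µM; growth read once vehicle control cultures reached saturation at 30 °C; 1 = growth at the plate median or of vehicle wells; lower values mean less growth of the strain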
Conditions: S. cerevisiae deletion strains, growth OD, locus YOR106W, strain vam3, active compounds read low
Out of some 5,500 compounds screened, about 2,000 (36%) were called active. About 18% were inconclusive and are not listed. Some of the results follow.
API doc: respond with a numeric literal and nothing else, no unit.

Please review the following examples before continuing.
Compound	Endpoint	Test value
c1cc2c(cc1[C@H]1OC[C@H]3[C@@H]1CO[C@H]3c1ccc3c(c1)OCO3)OCO2	normalized growth	0.908
CCn1cc(C(=O)O)c(=O)c2cnc(N3CCNCC3)nc21	normalized growth	1.04
CCOC(=O)C1=C[C@]2(CC)CCCN3CCc4c(n1c1ccccc41)[C@@H]32	normalized growth	1.04
CC1=C(/C=C/C(C)=C/C=C/C(C)=C/C=C/C=C(C)/C=C/C=C(C)/C=C/C2=C(C)CCCC2(C)C)C(C)(C)CCC1	normalized growth	0.922
CCOC(=O)C(C)(N)Cc1ccc(O)c(O)c1 (centres undefined)	normalized growth	0.859
CC1=C(/C=C/C(C)=C/C=C/C(C)=C\C(=O)O)C(C)(C)CCC1	normalized growth	0.927

GET /value?item= `O=C(O)c1ccc2c(c1)OCO2` &field=normalized growth returns 1

// CC[C@@H]1[C@@H](O)N2C3C[C@H]1C1C(O)[C@]4(C[C@@H]12)c1ccccc1N(C)[C@@H]34 (some centres undefined) : normalized growth value = 1.04

The compound listed as COc1ccccc1OCC(O)CN1CCN(CC(=O)Nc2c(C)cccc2C)CC1 (centres undefined) shows normalized growth equal to 1.04

The compound listed as `CC1=C(/C=C/C(C)=C/C=C/C(C)=C/C(=O)O)C(C)(C)CCC1` has a reported normalized growth of 0.935

For record COc1cc(C)c2c(c1C=O)Oc1c(c(C)c(O)c3c1C(O)OC3=O)OC2=O (centres undefined) the listed normalized growth is 1.03

Recorded result, `C[C@@H]1C[C@@H]([C@H](O)CC2CC(=O)NC(=O)C2)C(=O)[C@@H](C)C1` , normalized growth: 0.0681

Measured normalized growth of `O=C1N=C(O)CN1/N=C\c1ccc(-c2ccc([N+](=O)[O-])cc2)o1` : 0.972

# compound `O=C1CN(/N=C\c2ccc([N+](=O)[O-])o2)C(=O)N1` ; its normalized growth = 0.969

---

Experiment: chemical genetic growth profiling, strain panel (AID 1159580);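 further: tested at 20 µM; growth read once vehicle control cultures reached saturation at 30 °C; 1 = growth at the plate median or of vehicle wells; lower values mean less growth of the strain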
Conditions: S. cerevisiae deletion strains, growth OD, locus YEL003W, strain gim4, active compounds read low
In all, about 5,500 compounds went through this assay and about 2,000 (36%) were called active. Not shown: some 18% with an inconclusive outcome. Some of the results follow.
Endpoint: normalized growth

Molecule	normalized growth
CS(=O)(=O)OCCCCOS(C)(=O)=O	1.03 (inactive)
CCn1cc(C(=O)O)c(=O)c2cc3c(cc21)OCO3	1 (inactive)
O=C1O[C@@H](CO)[C@H](O)[C@@H](O)[C@@H]1O	1.02 (inactive)
CCOC(N)=O	0.997 (inactive)
NC(=O)c1cc[n+](CC2=C(C(=O)O)N3C(=O)C(NC(=O)C(c4ccccc4)S(=O)(=O)[O-])C3SC2)cc1 (stereo not drawn)	0.985 (inactive)

Reported normalized growth of `CCn1cc(C(=O)O)c(=O)c2cnc(N3CCNCC3)nc21` : 1.02 (inactive)

Form field normalized growth, entry OC1CCCCC1N1CCC(c2ccccc2)CC1 (stereo not drawn) : 0.994 (inactive)

Looking up `CC[C@]12CCCN3CCc4c(n(c5ccccc45)[C@](O)(C(=O)OC)C1)[C@@H]32` , I found its normalized growth recorded as 0.984 (inactive)

Reported normalized growth ( CC1(C)CC2C1CCC1(C)OC2(C)CCC1O (stereo not drawn) ) = 1.02 (inactive)

// sample `COc1ccc(C=CC(=O)c2ccc(O)cc2O)cc1OC` , its normalized growth was 0.936 (inactive)

---

Experiment: chemical genetic growth profiling, strain panel (AID 1159580);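 further: tested at 20 µM; growth read once vehicle control cultures reached saturation at 30 °C; 1 = growth at the plate median or of vehicle wells; lower values mean less growth of the strain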
Settings: S. cerevisiae deletion strains, growth OD, locus YDR392W, strain spt3, active compounds read low
The campaign covered roughly 5,500 compounds. About 2,000 (36%) were called active. Not shown: some 18% with an inconclusive outcome. The list shows a part of the results.
The compounds listed here are annotated with their normalized growth.

Some solved cases for reference:
Compound	Test value
C[C@](N)(Cc1ccc(O)c(O)c1)C(=O)O	0.886 (inactive)
CC(Cc1ccc(O)c(O)c1)(NN)C(=O)O (centres undefined)	0.985 (inactive)
C[C@]12CCC3c4ccc(OS(=O)(=O)O)cc4CCC3C1CCC2=O (some centres undefined)	0.923 (inactive)
C#C[C@]1(O)CCC2C3CCc4cc(O)ccc4C3CC[C@@]21C (some centres undefined)	0.617 (active)
COc1ccc2c(c1O)-c1c(OC)c(OC)cc3c1[C@H](C2)N(C)CC3	0.931 (inactive)

// normalized growth lookup, compound = `C[C@](N)(Cc1ccc(O)cc1)C(=O)O` , result: 0.923 (inactive)

response.value for `O=C1O[C@@H](CO)[C@H](O)[C@@H](O)[C@@H]1O` (field: normalized growth) = 1.06 (inactive)

Notebook: `S=c1[nH]c2ccccc2s1` , normalized growth read as 0.879 (inactive)

What the record says about C#C[C@]1(O)CCC2C3CCc4cc(OC)ccc4C3CC[C@@]21C (some centres undefined) : normalized growth is 0.614 (active)
